# ASSAYED_SYSTEM: Corticotropin-releasing factor receptor 1 (Rattus norvegicus)
# Sequence (P35353 whole entry): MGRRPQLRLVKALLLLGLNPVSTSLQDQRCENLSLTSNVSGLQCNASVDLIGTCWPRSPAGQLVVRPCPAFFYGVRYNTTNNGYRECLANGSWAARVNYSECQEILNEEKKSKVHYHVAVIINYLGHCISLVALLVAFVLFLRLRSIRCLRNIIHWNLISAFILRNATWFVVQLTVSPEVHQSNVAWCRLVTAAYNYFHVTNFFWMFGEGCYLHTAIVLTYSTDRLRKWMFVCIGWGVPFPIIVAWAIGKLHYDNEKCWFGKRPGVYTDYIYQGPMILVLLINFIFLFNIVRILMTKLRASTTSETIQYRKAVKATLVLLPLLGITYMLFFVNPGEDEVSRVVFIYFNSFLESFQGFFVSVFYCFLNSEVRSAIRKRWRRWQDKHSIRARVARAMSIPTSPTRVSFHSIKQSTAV
PROPERTY: IC50 (nM)

STRUCTURE_STRING	IC50 (nM)
CCCCN(CC)c1nc(C)nc2c1NCCN2c1ccc(OC)nc1OC	9.9

A = CCCN(CCOC)c1nc(C)nc2c1NCCN2c1cc(OC)c(OC)cc1C
B = CCCCN(CC)c1cc(C)nc2c1NCCN2c1ccc(C(C)=O)cc1C
[Q] For this pair, A and B , which shows a numerically higher IC50? Pick one and reply with its label.
[A] A
(A: 210 nM, B: 8.2 nM)

Source listed as ChEMBL document CHEMBL1147130.
